Measured values drawn from patent US11104690B2 for this set.

Read-out record for Human DGAT2 (Homo sapiens (Human)): IC50
Answers are plain numbers, in nM.

These recorded examples may help you get a feel for the data.
C[C@@H](CO)NC(=O)c1ccc2c(-c3ccccc3Cl)nn(-c3ccc(F)cc3)c2c1 ... 310
COc1cccc(-c2nn(-c3ccc(F)cc3)c3cc(C(=O)NC4(C)CCS(=O)(=O)C4)ccc23)c1 (single isomer, unassigned) ... 5.8

Task item: Query: IC50; subject: CC1(NC(=O)c2ccc3c(-c4cccc(OC(F)F)c4)nn(-c4ccc(F)cn4)c3c2)CCS(=O)(=O)C1 (single isomer, unassigned)
Reply: 3.3

====

# test.system: UniProt:Q96PD7
# if measured IC50 < 100 nM: criterion met  # else: criterion not met

COC[C@H](NC(=O)c1ccc2c(-c3ccccc3Cl)nn(-c3ccc(F)cc3)c2c1)[C@@H](O)c1ccccc1 [Example 74] ... criterion met
O=C(N[C@@H]1CCC[C@H]1O)c1ccc2c(-c3ccccc3Cl)nn(-c3ccc(F)cc3)c2c1 [Example 94] ... criterion not met
O=C(N[C@H]1c2ccccc2OC[C@H]1O)c1ccc2c(-c3ccccc3Cl)nn(-c3ccc(F)cc3)c2c1 [Example 71] ... criterion not met
COc1cc(C#N)cc(-c2nn(-c3ccc(F)cc3)c3cc(C(=O)NC4(C)CCS(=O)(=O)C4)ccc23)c1F (single isomer, unassigned) [Example 161-B] ... criterion met
COc1cccc(-n2nc(-c3ccccc3Cl)c3ccc(C(=O)NC4(C)CCS(=O)(=O)C4)cc32)n1 (racemic) [Example 186] ... criterion not met

Task item: Identify whether the molecule O=C(NC1CCS(=O)(=O)CC1)c1ccc2c(-c3ccccc3Cl)nn(-c3ccc(F)cc3)c2c1 [Example 24] records IC50 below 100 nM.
Reply: criterion met

Task item: Dear colleague, could you confirm whether IC50 of N#Cc1cccc(-c2nn(-c3ccc(F)cc3)c3cc(C(=O)NC4CCS(=O)(=O)C4)ccc23)c1 (stereo not shown) [Example 116] falls below 100 nM? Thanks.
Reply: criterion not met

Task item: Item O=C(NC1(CO)CCSC1)c1ccc2c(-c3ccccc3Cl)nn(-c3ccc(F)cc3)c2c1 (racemic) [Example 98] : IC50 beneath 100 nM, strictly?
Reply: criterion met

Task item: Is IC50 of CC1(NC(=O)c2ccc3c(-c4ccccc4Cl)nn(-c4nnc(C5CC5)s4)c3c2)CCS(=O)(=O)C1 (racemic) [Example 190] strictly below 100 nM?
Reply: criterion met

Task item: Does the reported IC50 of the following molecule sit strictly below 100 nM? CC1(NC(=O)c2ccc3c(-c4cccc(Cl)c4)nn(-c4ccc(F)cc4)c3c2)CCS(=O)(=O)C1 (single isomer, unassigned) [Example 158-A]
Reply: criterion met

====

# test.system: Human DGAT2 (Homo sapiens (Human), UniProt Q96PD7)
# Sequence (Q96PD7 whole entry): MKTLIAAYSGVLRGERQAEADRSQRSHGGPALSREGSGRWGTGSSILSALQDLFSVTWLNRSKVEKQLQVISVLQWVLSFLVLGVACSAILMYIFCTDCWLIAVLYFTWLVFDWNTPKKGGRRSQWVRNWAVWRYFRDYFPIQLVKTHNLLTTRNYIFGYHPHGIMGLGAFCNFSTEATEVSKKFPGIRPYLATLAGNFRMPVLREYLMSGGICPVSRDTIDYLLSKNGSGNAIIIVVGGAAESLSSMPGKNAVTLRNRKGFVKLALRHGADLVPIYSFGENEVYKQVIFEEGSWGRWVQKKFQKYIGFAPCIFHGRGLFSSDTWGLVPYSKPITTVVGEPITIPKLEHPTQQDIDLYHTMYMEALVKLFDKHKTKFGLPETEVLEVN
The label met is reserved for IC50 strictly under 400 nM; not met covers values equal to or above it.

Check out these entries, answers already filled in.
Cc1cccc(-c2nn(-c3ccc(F)cc3)c3cc(C(=O)NC4(C)CCS(=O)(=O)C4)ccc23)c1 (single isomer, unassigned) ... met
C[C@@H]1CC[C@@H](O)[C@H]1NC(=O)c1ccc2c(-c3ccccc3Cl)nn(-c3ccc(F)cc3)c2c1 ... met
O=C(NC1CCNC1=O)c1ccc2c(-c3ccccc3Cl)nn(-c3ccc(F)cc3)c2c1 (racemic) ... not met

Task item: Answer whether the compound O=C(N[C@@H]1CS(=O)(=O)C[C@H]1O)c1ccc2c(-c3ccccc3Cl)nn(-c3ccc(F)cc3)c2c1 has IC50 strictly less than 400 nM
Reply: not met

Task item: Check if IC50 falls below 400 nM for CC1(NC(=O)c2ccc3c(-c4ccccc4Cl)nn(-c4nnc(C(F)(F)F)s4)c3c2)CCS(=O)(=O)C1 (racemic) .
Reply: met

Task item: Quick check: IC50 of CC(C)(C)OC(=O)CCNC(=O)c1ccc2c(-c3ccccc3Cl)nn(-c3ccc(F)cc3)c2c1 under 400 nM?
Reply: not met

Task item: Does this compound meet the criterion IC50 < 400 nM? CC(NC(=O)c1ccc2c(-c3ccccc3Cl)nn(-c3ccc(F)cc3)c2c1)c1nncn1C (racemic)
Reply: not met

====

IC50, Human DGAT2 (Homo sapiens (Human)), per-entry values.
Answer by giving the amount and then stating its unit.

# annotated cases, reported IC50 shown
CN(C)S(=O)(=O)CCNC(=O)c1ccc2c(-c3ccccc3Cl)nn(-c3ccc(F)cc3)c2c1 ... 558 nM
O=C(N[C@@H](CO)[C@@H](O)c1ccccc1)c1ccc2c(-c3ccccc3Cl)nn(-c3ccc(F)cc3)c2c1 ... 127 nM
CC1(NC(=O)c2ccc3c(-c4ccccc4Cl)nn(-c4ccc(F)cn4)c3c2)CCS(=O)(=O)C1 (single isomer, unassigned) ... 56 nM
CN1CC(NC(=O)c2ccc3c(-c4ccccc4Cl)nn(-c4ccc(F)cc4)c3c2)CC1=O (racemic) ... 102 nM
CC1(NC(=O)c2ccc3c(-c4cncc(F)c4)nn(-c4ccc(F)cc4)c3c2)CCS(=O)(=O)C1 (single isomer, unassigned) ... 90 nM
COC(=O)c1cccc(-n2nc(-c3ccccc3Cl)c3ccc(C(=O)NC4(C)CCS(=O)(=O)C4)cc32)c1 (racemic) ... 222 nM

Go through the list and state IC50 for each entry.
1. CC(C)(CO)NC(=O)c1ccc2c(-c3ccccc3Cl)nn(-c3ccc(F)cc3)c2c1
2. O=C(NC1CCS(=O)(=O)C1)c1ccc2c(-c3cncnc3)nn(-c3ccc(F)cc3)c2c1 (single isomer, unassigned)
3. O=C1CC(NC(=O)c2ccc3c(-c4ccccc4Cl)nn(-c4ccc(F)cc4)c3c2)C(=O)N1 (racemic)
4. O=C(NC1CCOC1)c1ccc2c(-c3ccccc3Cl)nn(-c3ccc(F)cc3)c2c1 (racemic)
5. COc1ncc(Cl)cc1-c1nn(-c2ccc(F)cc2)c2cc(C(=O)NC3(C)CCS(=O)(=O)C3)ccc12 (single isomer, unassigned)
6. CC1(NC(=O)c2ccc3c(-c4cccc(C(C)(C)O)c4)nn(-c4ccc(F)cc4)c3c2)CCS(=O)(=O)C1 (racemic)
7. O=C(NC1CCS(=O)(=O)C1)c1ccc2c(-c3ccccc3Cl)nn(Cc3ccc(F)cc3)c2c1 (centres unmarked)

Reply:
1: 26 nM; 2: 846 nM; 3: 669 nM; 4: 59 nM; 5: 430 nM; 6: 311 nM; 7: 179 nM

Task item: Form field: reported IC50 of CC1(NC(=O)c2ccc3c(-c4cc(C(F)(F)F)ccc4Cl)nn(-c4ccc(F)cc4)c3c2)CCS(=O)(=O)C1 (single isomer, unassigned)
Reply: 6.9 nM

====

# test.system: Human DGAT2 (Homo sapiens (Human))
measurement.type: log10(IC50) (log10 of the value in nM)
Each number you see is log10 of IC50, and the unit inside the log is nM.

Worked cases, answers included:
COC(=O)C1(NC(=O)c2ccc3c(-c4ccccc4Cl)nn(-c4ccc(F)cc4)c3c2)CCCC1 ... 2.61
O=C(N[C@@H]1CCC[C@@H]1O)c1ccc2c(-c3ccccc3Cl)nn(-c3ccc(F)cc3)c2c1 ... 2.76
CC(C)[C@H](NC(=O)c1ccc2c(-c3ccccc3Cl)nn(-c3ccc(F)cc3)c2c1)C(N)=O ... 2.78
N#Cc1ccc(Cl)c(-c2nn(-c3ccc(F)cn3)c3cc(C(=O)NC4CCS(=O)(=O)C4)ccc23)c1 (single isomer, unassigned) ... 0.91
C[C@H](CO)NC(=O)c1ccc2c(-c3ccccc3Cl)nn(-c3ccc(F)cc3)c2c1 ... 2.89
O=C(NC1(CO)CC1)c1ccc2c(-c3ccccc3Cl)nn(-c3ccc(F)cc3)c2c1 ... 1.86

Turning now to a further record.
Task item: Request the reported log10(IC50) associated with O=C(NCc1cccnc1)c1ccc2c(-c3ccccc3Cl)nn(-c3ccc(F)cc3)c2c1
Reply: 2.51

====

# test.system: UniProt:Q96PD7
Exercise: for every item that follows, state its recorded IC50.
One number for each entry, in nM.

Worked cases, answers included:
CC1(NC(=O)c2ccc3c(-c4ccccc4Cl)nn(C4CCCCO4)c3c2)CCS(=O)(=O)C1 (centres unmarked) ... 182
O=C(NC1(c2ccc(Br)cc2)CC(O)C1)c1ccc2c(-c3ccccc3Cl)nn(-c3ccc(F)cc3)c2c1 (centres unmarked) ... 393
CCS(=O)(=O)CCNC(=O)c1ccc2c(-c3ccccc3Cl)nn(-c3ccc(F)cc3)c2c1 ... 446
Cc1ncc([C@H](C)NC(=O)c2ccc3c(-c4ccccc4Cl)nn(-c4ccc(F)cc4)c3c2)cn1 ... 75

Record IC50 for all entries; do not skip any.
1. O=C(N[C@H]1CCC[C@H]1O)c1ccc2c(-c3ccccc3Cl)nn(-c3ccc(F)cc3)c2c1
2. O=C(NC1CNCCS(=O)(=O)C1)c1ccc2c(-c3ccccc3Cl)nn(-c3ccc(F)cc3)c2c1 (racemic)
3. C[C@H](CS(N)(=O)=O)NC(=O)c1ccc2c(-c3ccccc3Cl)nn(-c3ccc(F)cc3)c2c1
4. O=C(NC1CC[S+]([O-])C1)c1ccc2c(-c3ccccc3Cl)nn(-c3ccc(F)cc3)c2c1 (single isomer, unassigned) [Example 58-A]

Reply:
1. 43
2. 179
3. 184
4. 668

Each molecule below has a reported value. Please supply its IC50.
1. O=C(N[C@@H]1CCCC[C@H]1O)c1ccc2c(-c3ccccc3Cl)nn(-c3ccc(F)cc3)c2c1 (racemic)
2. CC1(NC(=O)c2ccc3c(-c4ccccc4Cl)nn(-c4cscn4)c3c2)CCS(=O)(=O)C1 (centres unmarked)
3. C[C@@H](NC(=O)c1ccc2c(-c3ccccc3Cl)nn(-c3ccc(F)cc3)c2c1)[C@H](O)c1ccccc1

Reply:
1: 40; 2: 285; 3: 305
